Target: Gal(b1-3)GlcNAc(b1-2)Man(a1-3)[Gal(b1-3)GlcNAc(b1-2)Man(a1-6)]Man(b1-4)GlcNAc(b1-4)GlcNAc
Assay: glycan array binding signal (z-score within array); higher = stronger binding
Conditions: glycan notation: IUPAC condensed, linker removed
Shown is part of a subset that was picked to be rich in the strongest signals.
# glycan array binding signal (z-score) per record follows
Parameter measured: glycan array binding signal (z-score)

Binder	Parameter measured	Observed result
BDCA2 ex-domain (Homo sapiens) (protein) MASHHHHHHIEGRGLNDIFEAQKIEWHESLVPRGSCPTPWTSFQSSCYFISTGMQSWTKSQKNCSVMGADLVVINTREEQDFIIQNLKRNSSYFLGLSDPGGRRHWQWVDQTPYNENVTFWHSGEPNNLDERCAIINFRSSEEWGWNDIHCHVPQKSICKMKKIY	glycan array binding signal (z-score)	8.6
Gal 12 (Homo sapiens), Q96DT0 (protein) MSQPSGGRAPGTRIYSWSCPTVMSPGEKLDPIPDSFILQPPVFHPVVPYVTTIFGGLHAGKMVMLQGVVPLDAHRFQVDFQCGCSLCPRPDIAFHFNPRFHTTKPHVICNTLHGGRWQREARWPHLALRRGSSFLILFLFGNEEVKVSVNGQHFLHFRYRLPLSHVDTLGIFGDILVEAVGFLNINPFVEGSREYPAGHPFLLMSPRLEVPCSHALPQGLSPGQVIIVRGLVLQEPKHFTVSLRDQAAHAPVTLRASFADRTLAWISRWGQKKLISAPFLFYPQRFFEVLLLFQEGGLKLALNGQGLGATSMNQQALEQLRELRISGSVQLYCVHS	glycan array binding signal (z-score)	0.94
MVL (Microcystis viridis), Q9RHG4 (protein) MASYKVNIPAGPLWSNAEAQQVGPKIAAAHQGNFTGQWTTVVESAMSVVEVELQVENTGIHEFKTDVLAGPLWSNDEAQKLGPQIAASYGAEFTGQWRTIVEGVMSVIQIKYTF	glycan array binding signal (z-score)	1.51
